# System: PfENT1-expressing fui1Δ yeast
# Assay overview: 5-FUrd inhibition of PfENT1-expressing fui1Δ yeast growth
# Format: cell-based
# Study conditions: Saccharomyces cerevisiae, read-out: IC50 for inhibition of yeast growth
Parameter: IC50 (µM)
Numbers only, in µM.

Form field: reported IC50 of "O=c1[nH]c(=O)n([C@@H]2O[C@H](CO)[C@@H](O)[C@H]2O)cc1F"
4.8

* * *

For each entry below, report its IC50 value.
# Measurement target: UniProt A0A509AYF4
# Sequence (A0A509AYF4 whole entry): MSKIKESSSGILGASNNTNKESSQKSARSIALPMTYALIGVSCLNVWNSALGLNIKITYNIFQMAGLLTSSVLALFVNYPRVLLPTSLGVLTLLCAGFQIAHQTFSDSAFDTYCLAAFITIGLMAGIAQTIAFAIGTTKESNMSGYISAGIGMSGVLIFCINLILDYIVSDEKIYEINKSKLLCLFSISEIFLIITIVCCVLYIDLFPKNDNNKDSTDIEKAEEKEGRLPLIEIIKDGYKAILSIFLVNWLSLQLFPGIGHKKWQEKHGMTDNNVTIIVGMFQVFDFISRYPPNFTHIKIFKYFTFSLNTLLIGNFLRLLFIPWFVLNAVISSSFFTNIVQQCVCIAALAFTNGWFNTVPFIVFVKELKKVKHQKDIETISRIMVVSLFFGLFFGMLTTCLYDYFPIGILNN
# Assay overview: [3H]adenosine uptake into PbENT1-expressing yeast
Numbers only, in nM.

Solved entries:
CC(=O)Nc1nc(-c2c(F)cccc2F)cs1 [GSK-5]; 3090
COc1ccc(-c2nc(C(=O)Nc3cccc(-c4nnc5n4CCCCC5)c3)cs2)cc1OC [GSK-1]; 130
Cc1oc(-c2ccccc2)nc1C(=O)NCCN1CCCCCC1=O [GSK-4]; 10
O=C(Nc1ccccc1C(=O)NC1CC1)c1cccc(N2CCCC2=O)c1 [GSK-3]; 70

Now for the compound whose IC50 we want.
Form field: reported IC50 of CCc1nnc(NC(=O)c2nc(-c3ccc(Cl)cc3)n3c2CCCCC3)s1 [GSK-2]
50
